These data points were gathered from patent US7772216B2.

- EXPERIMENTAL_TARGET: UniProt:P17612
- PROCEDURE_DETAILS: Literature Mimetic PKA assay
- Assay type: biochemical
- TEST_CONTEXT: IC50 μM (cond. L, 4 h preincubation), Literature Mimetic, 4 h preincubation; * very distorted IC50 curve
Starred links: 1 amine or outer side, 2 acyl side, 3 side chain; linkers in the order of their positions; H or OH if unused. Non-standard residues stand in square brackets, D forms with d. Residues, ends and D or L forms follow the SMILES beside them. X2 = O=C([C@@H](CB(O)O)N[*:1])[*:2]; X3 = O=C([C@H](CCB(O)O)N[*:1])[*:2]

COMPOUND: CC[C@H](C)[C@H](NC(=O)[C@H](CCB(O)O)NC(=O)CNC(=O)[C@H](CCCNC(=N)N)NC(=O)[C@H](CCCNC(=N)N)NC(C)=O)C(N)=O [Compound 23] (Ac-RRG[X3]I-NH2)
IC50: 133 µM
//
COMPOUND: CC[C@H](C)[C@H](NC(=O)[C@@H](CB(O)O)NC(=O)CNC(=O)[C@H](CCCNC(=N)N)NC(=O)[C@H](CCCNC(=N)N)NC(C)=O)C(N)=O [Compound 22] (Ac-RRG[X2]I-NH2)
IC50: 65 µM
